These entries and their values trace back to PubChem BioAssay (NCI).

Reported log10 of TGI is given for each of the following compounds.
Test system: NCI-H23 lung
protocol text: NCI tumour cell line growth inhibition, 48 h
Annotation: log10 of TGI, µM basis.

{"compound": "Cc1c(O)c(Br)c(C)c(O)c1Br (tested in a mixture with another compound)", "log10 of TGI": 0.66}
{"compound": "CCc1ccc(/C=C/C(=O)C2CN(CC)CCC2(O)/C=C/c2ccc(CC)cc2)cc1 (centres undefined)", "log10 of TGI": 1.06}
{"compound": "CN1CCc2cc3c4cc2C1Cc1ccc(cc1)Oc1cc(ccc1O)CC1c2c(cc(O)c(c2O4)O3)CCN1C (centres undefined)", "log10 of TGI": 1.13}
{"compound": "CN1CCN(c2ccc(Nc3ncc4cc5n(c4n3)C3(CCCCC3)CNC5=O)nc2)CC1", "log10 of TGI": 1.20}

Entry under test: C=C1CC(C)(COc2ccc3c(C)cc(=O)oc3c2)OC1=O (centres undefined) . Its log10 of TGI was 1.15

Entry under test: "O=c1c2cc(S(=O)(=O)O)ccc2nc(COc2ccc(Oc3ccc(Cl)cc3Cl)cc2)n1C(=S)Nc1ccc(Cl)cc1" . Its log10 of TGI was 1.56

Entry under test: COC1=CC2CCN3Cc4cc5c(cc4C(C1O)C23)OCC5 (centres undefined) . Its log10 of TGI was 0.92

Entry under test: "Cc1cc2c(cc1C)C(=O)/C(=C/c1ccccc1C(=O)O)C2" . Its log10 of TGI was 1.82

Entry under test: "Fc1ccc(-c2nn3c(COc4ccc(Cl)cc4Cl)nnc3s2)cc1Oc1ccccc1" . Its log10 of TGI was 1.42

* * *

System: SN12C renal
protocol text: NCI tumour cell line growth inhibition, 48 h
value kind: TGI

Before answering, review these 4 worked examples.
{"compound": "COC(=O)C(Cc1nc2ccccc2[nH]c1=O)C(=O)C(=O)Nc1ccc(F)cc1 (stereo not given)", "TGI": "> 100 µM"}
{"compound": "CCN(CCO)CCCOc1ccc2c(Nc3cc(CC(=O)Nc4cccc(F)c4)[nH]n3)ncnc2c1", "TGI": "> 100 µM"}
{"compound": "COc1ccc(C(=C2C(=O)N(c3ccccc3)C(=O)C2=C(C)C)c2ccc(OC)cc2)cc1", "TGI": "> 38.2 µM"}
{"compound": "COc1cccc(/C=C\\c2ccnc3ccccc23)c1", "TGI": "> 10 µM"}

Entry under test: O=C1OC2(OC2c2ccc(Cl)cc2)c2ccccc21 (stereo not given) . Its TGI was > 100 µM

* * *

Reported GI50 is given for each of the following compounds.
Test system: SK-MEL-5 melanoma
protocol text: NCI tumour cell line growth inhibition, 48 h

Before answering, review these 2 worked examples.
{"compound": "COc1cc(Cn2c(SCC(=O)Nc3ccc(Cl)cc3)nc3ccccc3c2=O)cc(OC)c1OC", "GI50": "6.38 µM"}
{"compound": "COc1cc(NC(C)CCCN2C(=O)c3ccccc3C2=O)c2ncccc2c1OC (centres undefined)", "GI50": "16.5 µM"}

Field GI50 (SK-MEL-5 melanoma), entry "O=C(c1ccco1)c1c(C(F)(F)F)n([O-])c2ccc(F)cc2[n+]1=O" : 1.84 µM

Field GI50 (SK-MEL-5 melanoma), entry "COc1ccc(/C=C2/CN(CCC#N)C/C(=C\c3ccc(OC)cc3)C2=O)cc1" : 1.39 µM

* * *

System: HL-60(TB) leukemia
protocol text: NCI tumour cell line growth inhibition, 48 h
value kind: log10(TGI) (log10 of the value in µM)
Annotation: log10 of TGI, µM basis.

Before answering, review these 4 worked examples.
{"compound": "CCCCCCC1CC(=O)C1(Cl)Cl (stereo not given)", "log10(TGI)": 1.64}
{"compound": "O=c1c2cc(S(=O)(=O)O)ccc2nc(COc2ccc(Oc3ccc(Cl)cc3Cl)cc2)n1C(=S)Nc1ccc(Cl)cc1", "log10(TGI)": 0.61}
{"compound": "Cc1[nH]n(-c2ccccc2)c(=O)c1C(N(CCc1ccccc1)C1=NCC(C)S1)(C(F)(F)F)C(F)(F)F (stereo not given)", "log10(TGI)": 1.72}
{"compound": "COc1ccc(-c2nc3sccn3c2-c2ccnc(NCCCNS(=O)(=O)c3ccc(F)cc3)n2)cc1", "log10(TGI)": 0.96}

Entry under test: c1ccc2c(c1)N=C(c1ccc3ccccc3c1)CC(c1cccc3ccccc13)S2 (stereo not given) . Its log10(TGI) was 1.67

* * *

Test system: UACC-257 melanoma
protocol text: NCI tumour cell line growth inhibition, 48 h
value kind: TGI

Before answering, review these 8 worked examples.
{"compound": "CNN1C(=O)c2c(C)c(C)c(C#N)c(N)c2C1=O", "TGI": "> 100 µM"}
{"compound": "O=C(NNC(=O)c1ccccc1O)c1ccco1", "TGI": "> 100 µM"}
{"compound": "CCN1C(=O)N(CC)C2C1NN=c1s/c(=C\\c3ccc(OC)cc3)c(=O)n12 (stereo not drawn)", "TGI": "> 100 µM"}
{"compound": "COc1cc(Cn2c(SCC(=O)Nc3ccc(Cl)cc3)nc3ccccc3c2=O)cc(OC)c1OC", "TGI": "28 µM"}
{"compound": "O=c1c2cc(O)c(O)cc2oc2cc(O)c(C3OC(CO)C(O)C(O)C3O)c(O)c12 (stereo not drawn)", "TGI": "> 100 µM"}
{"compound": "COC(=O)C1(C)CCCC2(C)c3cc(OC)ccc3C(=O)C(Br)C12 (stereo not drawn)", "TGI": "> 10 µM"}
{"compound": "Cc1cccc(/C=N/NC(=S)N(C)CCc2ccccn2)n1", "TGI": "45.6 µM"}
{"compound": "CC(=O)NC(CCCNC(=O)OCc1ccccc1)C(=O)O (stereo not drawn)", "TGI": "> 100 µM"}

Entry under test: "O=C(CSc1nc2ccc(I)cc2c(=O)n1Cc1ccccc1)NN1C(=O)c2ccccc2C1=O" . Its TGI was 51.4 µM

Entry under test: COc1ccc(/C=C2\CCC(Cc3ccccc3)(CN(C)C)C2=O)cc1 (stereo not drawn) . Its TGI was 66.2 µM

Entry under test: "COc1ccc(Nc2nc3ccc(C(F)(F)F)cc3nc2C(=O)O)cc1" . Its TGI was 96.7 µM

Entry under test: "COc1c(Br)cc(/C=C(\C#N)c2ccccn2)cc1Br" . Its TGI was > 100 µM

Entry under test: "O=C(O)COc1ccc(C(=O)/C(SS/C(C(=O)c2ccc(OCC(=O)O)c(Cl)c2Cl)=C2\C=C(c3ccccc3Cl)SS2)=C2/C=C(c3ccccc3Cl)SS2)c(Cl)c1Cl" . Its TGI was > 83.1 µM

Entry under test: "CCOC(=O)Nc1cc2c(c(N)n1)N=C(c1ccc3ccccc3c1)CN2" . Its TGI was > 100 µM

Entry under test: "N#C/C(C(=O)Nc1ccc(Cl)cc1)=C(/N)N1CCOCC1" . Its TGI was > 100 µM

Entry under test: CCCCCCCCCCCC(=O)OC(COC(N)=O)COc1ccc(Cl)cc1 (stereo not drawn) . Its TGI was 51 µM

Entry under test: Cc1c(O)c(Br)c(C)c(O)c1Br (tested in a mixture with another compound) . Its TGI was 3.02 µM

Entry under test: "CCOC(=O)CC(=O)CSc1c(-c2ccccc2)c(=O)n(-c2ccccc2)c(=S)n1-c1ccccc1" . Its TGI was > 100 µM

* * *

Tested on: CCRF-CEM leukemia
protocol text: NCI tumour cell line growth inhibition, 48 h
Reported GI50 is given for each of the following compounds.

Before answering, review these 4 worked examples.
{"compound": "COc1cc(NC(=O)c2ccccc2Nc2ccnc(C(F)(F)F)c2)cc(OC)c1OC", "tested system": "CCRF-CEM leukemia", "GI50": "50.7 µM"}
{"compound": "CCN1C(=O)N(CC)C2C1NN=c1s/c(=C\\c3ccc(OC)cc3)c(=O)n12 (stereo not given)", "tested system": "CCRF-CEM leukemia", "GI50": "0.304 µM"}
{"compound": "CC/C(=N/N=C(N)N)c1ccc(NC(=O)Nc2ccc(/C(CC)=N/N=C(N)N)cc2)cc1", "tested system": "CCRF-CEM leukemia", "GI50": "5.8 µM"}
{"compound": "N=C1C(c2nc3ccccc3s2)=C(O)CN1c1cc(Cl)cc(Cl)c1", "tested system": "CCRF-CEM leukemia", "GI50": "> 100 µM"}

Field GI50 (CCRF-CEM leukemia), entry "N#Cc1c(N)c(C#N)c2c(c1-c1ccc(Cl)cc1)COc1ccc(F)cc1-2" : > 50 µM

* * *

Test system: HT29 colon
protocol text: NCI tumour cell line growth inhibition, 48 h
value kind: TGI

Before answering, review these 4 worked examples.
{"compound": "Cc1ccc(S(=O)(=O)Oc2nc3nc4ccccc4nc3nc2OS(=O)(=O)c2ccc(C)cc2)cc1", "TGI": "> 100 µM"}
{"compound": "CN(C)c1ccc(/C=c2/c3ccccc3n3c2cc(NC(=O)NCCC[N+](C)(C)C)[n+]3C)cc1", "TGI": "> 100 µM"}
{"compound": "C[N+](C)(C)CCN[N+]1(C)CCCc2ccccc21 (stereo not given)", "TGI": "> 100 µM"}
{"compound": "COc1ccc(Nc2nc3ccc(C(F)(F)F)cc3nc2C(=O)O)cc1", "TGI": "> 100 µM"}

Moving on to another compound below.
Field TGI (HT29 colon), entry "COC(=O)/C=C1\CCCN1CCc1cc2c(cc1CC#N)OCO2" : > 100 µM
